Tested on: RPMI-8226 leukemia
Assay: NCI tumour cell line growth inhibition, 48 h
Listing of recorded TGI by entry.
ENDPOINT: TGI

> print(dat)
                                    compound  endpoint     result
 1  COc1cc(C2OC[C@@H]3C(=O)OC[C@H]23)cc(O)c1OC (stereo partly specified)       TGI   > 100 µM
 2  CC(C)(C)n1c(=O)n2n(c1=O)C1c3cccc4cccc(c34)C2C2c3cccc4cccc(c34)C1n1c(=O)n(C(C)(C)C)c(=O)n12       TGI   > 100 µM
 3  C=C(Cl)C(C)(Cl)CCC(Cl)C(C)C (stereo unspecified)       TGI   > 100 µM
 4         NCCSC(c1ccccc1)(c1ccccc1)c1ccccc1       TGI    4.19 µM
 5              CC(=O)OCCCC#CC#Cc1cccc(=O)o1       TGI    20.3 µM
 6                 CCCN(CCC)c1ccc(C=O)c(C)c1       TGI   > 100 µM
 7  COc1ccc(-c2[nH]nc(N)c2-c2cc(OC)c(OC)c(OC)c2)cc1       TGI    7.69 µM
 8        Cc1cccc(C)c1N=Nc1ccc(O)c(CN(C)C)c1       TGI   > 100 µM
 9  COc1cc(CNc2c3ccccc3nc3ccccc23)cc(OC)c1OC       TGI  > 27.3 µM
10         CN(C)C=Nc1c(I)cc(I)c(CCC(=O)O)c1I       TGI   > 100 µM
11  O=C(O)C12CCC(CC1=O)C2 (stereo unspecified)       TGI   > 100 µM
12        O=c1[nH]c(=O)n(CCOCP(=O)(O)O)nc1Br       TGI   > 100 µM
13  COc1ccc2nc3cccc([N+](=O)[O-])c3c(NC(C)CN(C)C)c2c1 (stereo unspecified)       TGI       6 µM
14  O=C1CC2CC(CC3(CO3)C2)C1F (stereo unspecified)       TGI   > 100 µM
15  O=C1CC(N2C(=O)/C(=C/C(Cl)=C\c3ccc([N+](=O)[O-])cc3)SC2=S)C(=O)N1c1ccc(O)cc1 (stereo unspecified)       TGI    4.36 µM
16  COC(=O)C1[C@H](c2ccc3c(c2)OCO3)OC(=O)[C@]1(C(=O)OC)C(=O)c1ccc(OC)c(OC)c1 (stereo partly specified)       TGI   > 100 µM
17  Cc1ccsc1-c1ccc2c(c1)COC2(CCCN(C)C)c1ccc(F)cc1 (stereo unspecified)       TGI    4.88 µM
18  CCC12C=CCN3CCC4(c5cc(C(c6ccc(OC)cc6)C6Cc7ccccc7N6)c(OC)cc5N(C)C4C(O)(C(=O)OC)C1O)C32 (stereo unspecified)       TGI    13.8 µM
19  CC(C)(C)[Si](C)(C)OCC1OC(n2ccc(=O)[nH]c2=O)C(O[Si](C)(C)C(C)(C)C)[C@]12O[C@@H]2CO (stereo partly specified)       TGI   > 100 µM
20  Cc1ccccc1C(C(=O)NC1CCCCC1)N(C(=O)CNc1ncccc1F)c1cccc(F)c1 (stereo unspecified)       TGI   > 100 µM
21  O=[N+]([O-])/C(Cl)=C/C(=C1/Nc2ccccc2O1)[N+](=O)[O-]       TGI    66.1 µM

Origin of values: PubChem BioAssay (NCI)
